value-type: melting point (°C)
The reply should contain only the number, in °C.

O=C(O)CCC(c1ccccc1)c1ccccc1F (stereo not given)
105
COC(=O)c1nc2cc(C(F)(F)F)ccc2c(O)c1C(=O)OC
210
O=C(CCN1CCCC1)Nc1ccc2c(c1)C(=O)c1cc(NC(=O)CCN3CCCC3)ccc1C2=O
233

query: Find the measured melting point of "CSc1nn(C(=O)NS(=O)(=O)c2ccccc2OC(F)(F)F)c(=O)n1N" and report it.
result: 136

query: # return recorded melting point for input "COC(=O)Cc1nsc(NC(=O)c2ccccc2)n1"
result: 143

query: Please list melting point recorded for the compound "O=C(Nc1ccncc1)c1ccc(OC(F)F)c2oc3ccccc3c12"
result: 230

query: Look up and state reported melting point for [N-]=[N+]=NCC1=C(C(=O)O)N2C(=O)C(NC(=O)Cc3csc(=O)s3)C2SC1 (stereo not given)
result: 160

query: In one line, give reported melting point of the entry CCCC1CCC(C2CCc3c(c(F)c(F)c4cc(OCC)ccc34)O2)CC1 (stereo not given) .
result: 158

query: Return reported melting point. Input compound: CCC1(C)CC(NC(=O)C(=O)NC2CC(C)(CC)N(C(C)=O)C(C)(CC)C2C)C(C)C(C)(CC)N1C(C)=O (stereo not given)
result: 164
